# credit: patent US11839613B2

Assay Target: PTGER2 (EP2) (Homo sapiens (Human))
Sequence (P43116 whole entry): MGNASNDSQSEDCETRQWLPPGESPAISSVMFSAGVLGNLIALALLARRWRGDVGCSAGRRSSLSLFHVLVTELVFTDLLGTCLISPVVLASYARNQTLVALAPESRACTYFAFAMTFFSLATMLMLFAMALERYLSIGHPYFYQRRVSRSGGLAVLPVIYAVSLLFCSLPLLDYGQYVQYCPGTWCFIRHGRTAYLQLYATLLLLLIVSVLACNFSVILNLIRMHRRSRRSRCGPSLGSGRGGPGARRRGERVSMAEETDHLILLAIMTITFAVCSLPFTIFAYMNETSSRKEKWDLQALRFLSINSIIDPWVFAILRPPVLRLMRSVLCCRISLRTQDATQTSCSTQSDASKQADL
Assay Overview: hEP2 b-arrestin assay (PathHunter HEK 293 PTGER2 b-arrestin cells)
Details: antagonistic activity, beta-arrestin assay; read-out: hEP2 b-arr IC50
Experimental Endpoint: pIC50
In simple prose, pIC50 is minus the logarithm base ten of a concentration in moles per litre.

Sample records with pIC50:
                                   compound  experimental_endpoint  measured_number
0  COc1cc2c(c(C)c1CCNc1cc(-c3ccc(CC(=O)O)c(OC(C)C)c3)ncn1)OCCO2                  pIC50             8.05
1  CCc1nc(-c2cc(NCCc3ccc4ccccc4c3C)ncn2)sc1C(=O)O                  pIC50             6.32
2  O=C(O)C1Cc2cc(-c3cc(NCCc4ccc5sccc5c4)ncn3)ccc2O1 (racemic)                  pIC50             6.57
3  CCCCOc1cc(-c2cc(NCCc3cc(F)c4sccc4c3)ncn2)ccc1C(=O)O                  pIC50             7.06

Asked: Name the recorded pIC50 of the item `CCCc1cc(-c2cc(NCCc3cc4c(cc3OCC)OCCO4)ncn2)ccc1CC(=O)O` in your answer.
Given back: 7.66

Asked: Dear colleague, please send me the reported pIC50 for `CCOc1cc(-c2cc(NCCc3cc4c(cc3OC(F)F)OCCO4)ncn2)sc1C(=O)O` when you can.
Given back: 7.52
